Hi there, I'd appreciate the recorded viability, T/C for every entry that follows.
test system: 233499-124-R-J3-PDC complex spheroid growth; assay: Anticancer human tumor 233499-124-R-J3-PDC patient-derived colon adenocarcinoma cell line growth inhibition [AhR]; conditions: second compound 0.1 µM; first compound 0.0316 µM; hits give low values;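 also: spheroids exposed to agents for seven days before reading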
Numeric answer only, unit % assumed.

For CC1(C)CCC(CN2CCN(c3ccc(C(=O)NS(=O)(=O)c4ccc(NCC5CCOCC5)c([N+](=O)[O-])c4)c(Oc4cnc5[nH]ccc5c4)c3)CC2)=C(c2ccc(Cl)cc2)C1 + Cc1ccccc1N=Nc1ccc(NC(=O)c2ccnn2C)c(C)c1 the compound record lists viability, T/C as 94.8

For O=C(C=Cc1cccc(S(=O)(=O)Nc2ccccc2)c1)NO + Cc1ccccc1N=Nc1ccc(NC(=O)c2ccnn2C)c(C)c1 the compound record lists viability, T/C as 98.3

For Cn1ncnc1C1c2n[nH]c(=O)c3cc(F)cc(c23)NC1c1ccc(F)cc1 (stereo not given) + CC(CO)NC(=O)c1cc(-c2ccc(Cl)cc2)nn(-c2cnn(C)c2)c1=O the compound record lists viability, T/C as 86.7

For O=C(C=Cc1cccc(S(=O)(=O)Nc2ccccc2)c1)NO + CC(CO)NC(=O)c1cc(-c2ccc(Cl)cc2)nn(-c2cnn(C)c2)c1=O the compound record lists viability, T/C as 98

For COc1cccc2c1C(=O)c1c(O)c3c(c(O)c1C2=O)CC(O)(C(=O)CO)CC3OC1CC(N)C(O)C(C)O1 (stereo not given) + CC(CO)NC(=O)c1cc(-c2ccc(Cl)cc2)nn(-c2cnn(C)c2)c1=O the compound record lists viability, T/C as 103

For COc1ccc([C@@H](O)c2cc(-c3ncnc4cc(N5CCOCC5)ccc34)c(F)cc2Cl)nn1 + CC(CO)NC(=O)c1cc(-c2ccc(Cl)cc2)nn(-c2cnn(C)c2)c1=O the compound record lists viability, T/C as 104

For CC1COCCN1c1cc(C2(S(C)(=N)=O)CC2)nc(-c2ccnc3[nH]ccc23)n1 (stereo not given) + Cc1cncc(-c2nc(NCCc3c[nH]c4ccccc34)c3ncn(C(C)C)c3n2)c1 the compound record lists viability, T/C as 99

For COc1cc(Nc2ncc3c(n2)-c2ccc(Cl)cc2C(c2c(F)cccc2OC)=NC3)ccc1C(=O)O + Cc1ccccc1N=Nc1ccc(NC(=O)c2ccnn2C)c(C)c1 the compound record lists viability, T/C as 92.5

For CC[C@@]1(O)C(=O)OCc2c1cc1n(c2=O)Cc2cc3c(CN(C)C)c(O)ccc3nc2-1 + CC(CO)NC(=O)c1cc(-c2ccc(Cl)cc2)nn(-c2cnn(C)c2)c1=O the compound record lists viability, T/C as 84.1

For CC1COCCN1c1cc(C2(S(C)(=N)=O)CC2)nc(-c2ccnc3[nH]ccc23)n1 (stereo not given) + Cc1ccccc1N=Nc1ccc(NC(=O)c2ccnn2C)c(C)c1 the compound record lists viability, T/C as 103

For CC(C)c1c(-c2ccccc2)nc2c(C#N)c[nH]n2c1=O + CC(CO)NC(=O)c1cc(-c2ccc(Cl)cc2)nn(-c2cnn(C)c2)c1=O the compound record lists viability, T/C as 100

For CC(C)c1c(-c2ccccc2)nc2c(C#N)c[nH]n2c1=O + Cc1ccccc1N=Nc1ccc(NC(=O)c2ccnn2C)c(C)c1 the compound record lists viability, T/C as 110

For Cn1ncnc1C1c2n[nH]c(=O)c3cc(F)cc(c23)NC1c1ccc(F)cc1 (stereo not given) + Cc1ccccc1N=Nc1ccc(NC(=O)c2ccnn2C)c(C)c1 the compound record lists viability, T/C as 99.2

For Nc1ccn(C2OC(CO)C(O)C2(F)F)c(=O)n1 (stereo not given) + Cc1ccccc1N=Nc1ccc(NC(=O)c2ccnn2C)c(C)c1 the compound record lists viability, T/C as 103

For Nc1ncn(C2CC(O)C(CO)O2)c(=O)n1 (stereo not given) + Cc1cncc(-c2nc(NCCc3c[nH]c4ccccc34)c3ncn(C(C)C)c3n2)c1 the compound record lists viability, T/C as 91.3
